# SYSTEM TESTED: ErbB2 (Homo sapiens)
# Construct: purchased DiscoverX (KINOMEscan service); host or cells: E. coli BL21-derived host (T7 phage) or HEK-293
# Sequence (P04626 23-1255): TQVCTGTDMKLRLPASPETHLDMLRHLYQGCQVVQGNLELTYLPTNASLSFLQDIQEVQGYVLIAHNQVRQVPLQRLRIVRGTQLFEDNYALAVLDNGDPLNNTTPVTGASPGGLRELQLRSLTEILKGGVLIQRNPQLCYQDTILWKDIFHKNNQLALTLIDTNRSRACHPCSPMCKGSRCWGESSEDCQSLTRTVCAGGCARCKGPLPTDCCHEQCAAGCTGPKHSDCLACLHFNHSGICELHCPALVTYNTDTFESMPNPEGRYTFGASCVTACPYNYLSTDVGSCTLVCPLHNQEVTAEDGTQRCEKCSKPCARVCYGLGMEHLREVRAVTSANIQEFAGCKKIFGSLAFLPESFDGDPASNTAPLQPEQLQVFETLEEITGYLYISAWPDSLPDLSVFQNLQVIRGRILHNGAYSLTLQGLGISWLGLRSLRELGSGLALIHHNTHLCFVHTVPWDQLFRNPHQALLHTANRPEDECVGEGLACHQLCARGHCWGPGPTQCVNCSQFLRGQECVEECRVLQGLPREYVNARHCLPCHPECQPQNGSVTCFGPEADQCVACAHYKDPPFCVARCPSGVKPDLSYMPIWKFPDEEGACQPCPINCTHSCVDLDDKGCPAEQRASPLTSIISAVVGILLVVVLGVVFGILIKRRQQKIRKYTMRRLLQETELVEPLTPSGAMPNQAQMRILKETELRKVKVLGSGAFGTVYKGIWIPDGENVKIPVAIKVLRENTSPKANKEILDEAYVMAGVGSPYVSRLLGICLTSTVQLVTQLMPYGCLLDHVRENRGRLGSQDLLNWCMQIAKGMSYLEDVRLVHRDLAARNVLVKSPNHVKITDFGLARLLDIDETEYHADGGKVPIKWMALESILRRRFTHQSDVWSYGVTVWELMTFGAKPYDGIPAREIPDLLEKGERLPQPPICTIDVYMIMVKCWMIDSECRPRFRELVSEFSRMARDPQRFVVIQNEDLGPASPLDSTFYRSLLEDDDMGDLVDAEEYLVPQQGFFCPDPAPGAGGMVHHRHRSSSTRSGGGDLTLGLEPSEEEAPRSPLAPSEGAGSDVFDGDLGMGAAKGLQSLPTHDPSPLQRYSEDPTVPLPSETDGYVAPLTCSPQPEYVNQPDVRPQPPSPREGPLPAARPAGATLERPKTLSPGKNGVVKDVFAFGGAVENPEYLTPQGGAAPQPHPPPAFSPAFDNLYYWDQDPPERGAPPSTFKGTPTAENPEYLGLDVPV
# EXPERIMENT NOTES: DiscoverX KINOMEscan competition binding assay
# CONDITION SUMMARY: compound 10 µM; lower values = higher affinity; below 35% = significant binding
REPORTED PROPERTY: % control, ErbB2 (DiscoverX) (% control)

>  <COMPOUND>
Cc1ccc(/C=C2\N=C(c3cccc(S(=O)(=O)N(C)C)c3)OC2=O)s1

>  <UNIT NAME>
% control

>  <% control, ErbB2 (DiscoverX)>
100

$$$$
>  <COMPOUND>
Nc1nc(N2CCC[C@H](Cc3nc4ccccc4[nH]3)C2)c2nc[nH]c2n1

>  <UNIT NAME>
% control

>  <% control, ErbB2 (DiscoverX)>
90

$$$$
>  <COMPOUND>
COCCCNC(=O)c1nc2c3c4c(sc3ncn2n1)CCC[C@H]4C

>  <UNIT NAME>
% control

>  <% control, ErbB2 (DiscoverX)>
96

$$$$
>  <COMPOUND>
C[C@H](COCC(F)(F)F)NC(=O)Cc1n[nH]c(=O)c2ccccc12

>  <UNIT NAME>
% control

>  <% control, ErbB2 (DiscoverX)>
100

$$$$
>  <COMPOUND>
COCCCNC(=O)c1nc2c3c4c(sc3ncn2n1)CC[C@H](C)C4

>  <UNIT NAME>
% control

>  <% control, ErbB2 (DiscoverX)>
100

$$$$
>  <COMPOUND>
CC(C)OCC(O)CN1CCN(C(=O)c2cccc(Cl)c2)CC1 (centres unmarked)

>  <UNIT NAME>
% control

>  <% control, ErbB2 (DiscoverX)>
92

$$$$
>  <COMPOUND>
O=C(O)c1cncnc1NCc1nc(-c2cnccn2)n[nH]1

>  <UNIT NAME>
% control

>  <% control, ErbB2 (DiscoverX)>
100

$$$$
>  <COMPOUND>
CN(C)S(=O)(=O)c1cccc(C2=N/C(=C\c3cccc(F)c3)C(=O)O2)c1

>  <UNIT NAME>
% control

>  <% control, ErbB2 (DiscoverX)>
95

$$$$
>  <COMPOUND>
CC1(C)C2CC=C(COC(=O)c3cnn4cccnc34)C1C2 (centres unmarked)

>  <UNIT NAME>
% control

>  <% control, ErbB2 (DiscoverX)>
100

$$$$
>  <COMPOUND>
O=C(NCC1CC1)Nc1ccc(N2CCOC2=O)cc1

>  <UNIT NAME>
% control

>  <% control, ErbB2 (DiscoverX)>
94

$$$$
>  <COMPOUND>
Cc1ccc(-n2cnnn2)cc1NC(=O)NC1CC1

>  <UNIT NAME>
% control

>  <% control, ErbB2 (DiscoverX)>
100

$$$$
>  <COMPOUND>
CCOCC(C)(C)NC(=O)Nc1cc(F)ccc1OC

>  <UNIT NAME>
% control

>  <% control, ErbB2 (DiscoverX)>
100

$$$$
>  <COMPOUND>
O=C(Cn1cnc2c(cnn2CCO)c1=O)NCc1ccccc1

>  <UNIT NAME>
% control

>  <% control, ErbB2 (DiscoverX)>
100

$$$$
>  <COMPOUND>
O=C1C[C@@H](c2noc(-c3ccc[nH]c3=O)n2)CN1Cc1ccccc1

>  <UNIT NAME>
% control

>  <% control, ErbB2 (DiscoverX)>
94

$$$$
>  <COMPOUND>
Cc1cc(COC(=O)c2cnc3c(cnn3Cc3ccccc3)c2)on1

>  <UNIT NAME>
% control

>  <% control, ErbB2 (DiscoverX)>
94

$$$$
>  <COMPOUND>
CCCCn1nnnc1CN1CCc2nn(CC)c(=O)cc2C1

>  <UNIT NAME>
% control

>  <% control, ErbB2 (DiscoverX)>
100

$$$$
>  <COMPOUND>
Cc1[nH]c2nc3c(c(=O)n(Cc4ccccc4)c(=O)n3C)n2c1C

>  <UNIT NAME>
% control

>  <% control, ErbB2 (DiscoverX)>
96

$$$$
>  <COMPOUND>
CCOCCCNC(=O)c1nc2c3c4c(sc3ncn2n1)CC[C@@H](C)C4

>  <UNIT NAME>
% control

>  <% control, ErbB2 (DiscoverX)>
90

$$$$
>  <COMPOUND>
Cc1cc(=O)n2nc(N(C)CC(=O)NCc3cccs3)sc2n1

>  <UNIT NAME>
% control

>  <% control, ErbB2 (DiscoverX)>
87

$$$$
>  <COMPOUND>
Cc1ccc(NC(=O)COC(=O)c2cc(=O)[nH]c3ccccc23)cc1

>  <UNIT NAME>
% control

>  <% control, ErbB2 (DiscoverX)>
100

$$$$

---

# SYSTEM TESTED: VEGFR2 (Homo sapiens, UniProt P35968)
# Construct: purchased DiscoverX (KINOMEscan service); host or cells: E. coli BL21-derived host (T7 phage) or HEK-293
# Sequence (P35968 20-1356): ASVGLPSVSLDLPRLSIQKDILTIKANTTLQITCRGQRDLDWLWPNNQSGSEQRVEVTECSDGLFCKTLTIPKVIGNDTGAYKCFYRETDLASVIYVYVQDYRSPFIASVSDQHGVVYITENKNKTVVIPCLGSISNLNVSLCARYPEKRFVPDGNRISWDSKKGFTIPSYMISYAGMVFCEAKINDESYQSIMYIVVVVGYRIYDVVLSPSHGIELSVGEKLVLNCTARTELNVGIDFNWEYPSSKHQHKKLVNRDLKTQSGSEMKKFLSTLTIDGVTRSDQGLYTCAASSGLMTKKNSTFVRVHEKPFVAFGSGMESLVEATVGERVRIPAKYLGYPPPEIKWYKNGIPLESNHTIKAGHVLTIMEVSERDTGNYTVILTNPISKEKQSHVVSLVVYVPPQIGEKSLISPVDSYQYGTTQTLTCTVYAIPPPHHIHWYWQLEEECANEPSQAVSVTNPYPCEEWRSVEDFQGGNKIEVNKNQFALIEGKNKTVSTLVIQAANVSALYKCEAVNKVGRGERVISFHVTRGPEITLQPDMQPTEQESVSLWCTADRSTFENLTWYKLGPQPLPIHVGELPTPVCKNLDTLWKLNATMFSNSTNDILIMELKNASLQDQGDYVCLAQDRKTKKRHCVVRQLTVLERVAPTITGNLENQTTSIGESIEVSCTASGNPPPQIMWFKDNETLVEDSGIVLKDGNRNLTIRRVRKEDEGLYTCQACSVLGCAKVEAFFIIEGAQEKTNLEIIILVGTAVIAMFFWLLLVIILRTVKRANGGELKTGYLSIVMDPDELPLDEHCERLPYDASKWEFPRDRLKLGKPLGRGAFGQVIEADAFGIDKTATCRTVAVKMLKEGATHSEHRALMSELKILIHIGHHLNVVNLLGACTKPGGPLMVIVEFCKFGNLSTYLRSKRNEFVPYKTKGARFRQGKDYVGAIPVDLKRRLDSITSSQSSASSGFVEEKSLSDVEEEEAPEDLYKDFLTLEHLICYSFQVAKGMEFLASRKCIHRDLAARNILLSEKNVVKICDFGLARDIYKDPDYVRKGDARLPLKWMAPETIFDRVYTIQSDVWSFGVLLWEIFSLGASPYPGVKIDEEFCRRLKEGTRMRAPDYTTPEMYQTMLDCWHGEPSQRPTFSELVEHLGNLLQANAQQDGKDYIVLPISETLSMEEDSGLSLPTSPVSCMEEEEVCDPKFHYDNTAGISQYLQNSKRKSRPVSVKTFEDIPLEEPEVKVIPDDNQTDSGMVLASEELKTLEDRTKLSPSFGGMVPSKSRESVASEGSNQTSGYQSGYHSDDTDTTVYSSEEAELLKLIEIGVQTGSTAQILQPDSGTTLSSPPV
# EXPERIMENT NOTES: DiscoverX KINOMEscan competition binding assay
# CONDITION SUMMARY: compound 10 µM; lower values = higher affinity; below 35% = significant binding
REPORTED PROPERTY: % control, VEGFR2 (DiscoverX) (% control)

>  <MOLECULE>
O=C(O)c1cncnc1NCc1nc(-c2cnccn2)n[nH]1 [DS74417]

>  <UNIT NAME>
% control

>  <% control, VEGFR2 (DiscoverX)>
100

$$$$
>  <MOLECULE>
Cc1ccc(NC(=O)COC(=O)c2cc(=O)[nH]c3ccccc23)cc1 [K001MM012]

>  <UNIT NAME>
% control

>  <% control, VEGFR2 (DiscoverX)>
91

$$$$
>  <MOLECULE>
CC1(C)C2CC=C(COC(=O)c3cnn4cccnc34)C1C2 (stereo not shown) [DS34376]

>  <UNIT NAME>
% control

>  <% control, VEGFR2 (DiscoverX)>
100

$$$$
>  <MOLECULE>
CCOCCCNC(=O)c1nc2c3c4c(sc3ncn2n1)CC[C@@H](C)C4 [DS82066]

>  <UNIT NAME>
% control

>  <% control, VEGFR2 (DiscoverX)>
100

$$$$
>  <MOLECULE>
CC(C)OCC(O)CN1CCN(C(=O)c2cccc(Cl)c2)CC1 (stereo not shown) [K001MM002]

>  <UNIT NAME>
% control

>  <% control, VEGFR2 (DiscoverX)>
100

$$$$
>  <MOLECULE>
CCc1nnc(NC(=O)c2nn(-c3ccc(C)cc3)ccc2=O)s1 [DS59212]

>  <UNIT NAME>
% control

>  <% control, VEGFR2 (DiscoverX)>
100

$$$$
>  <MOLECULE>
CCCCn1nnnc1CN1CCc2nn(CC)c(=O)cc2C1 [K001MM005]

>  <UNIT NAME>
% control

>  <% control, VEGFR2 (DiscoverX)>
100

$$$$
>  <MOLECULE>
Cc1cc(=O)n2nc(N(C)CC(=O)NCc3cccs3)sc2n1 [DS72975]

>  <UNIT NAME>
% control

>  <% control, VEGFR2 (DiscoverX)>
99

$$$$
>  <MOLECULE>
Cc1ccc(-n2cnnn2)cc1NC(=O)NC1CC1 [DS44245]

>  <UNIT NAME>
% control

>  <% control, VEGFR2 (DiscoverX)>
98

$$$$
>  <MOLECULE>
COCCCNC(=O)c1nc2c3c4c(sc3ncn2n1)COC(C)(C)C4 [DS11689]

>  <UNIT NAME>
% control

>  <% control, VEGFR2 (DiscoverX)>
100

$$$$

---

# SYSTEM TESTED: LCK (Homo sapiens)
# Construct: purchased DiscoverX (KINOMEscan service); host or cells: E. coli BL21-derived host (T7 phage) or HEK-293
# Sequence (P06239 whole entry): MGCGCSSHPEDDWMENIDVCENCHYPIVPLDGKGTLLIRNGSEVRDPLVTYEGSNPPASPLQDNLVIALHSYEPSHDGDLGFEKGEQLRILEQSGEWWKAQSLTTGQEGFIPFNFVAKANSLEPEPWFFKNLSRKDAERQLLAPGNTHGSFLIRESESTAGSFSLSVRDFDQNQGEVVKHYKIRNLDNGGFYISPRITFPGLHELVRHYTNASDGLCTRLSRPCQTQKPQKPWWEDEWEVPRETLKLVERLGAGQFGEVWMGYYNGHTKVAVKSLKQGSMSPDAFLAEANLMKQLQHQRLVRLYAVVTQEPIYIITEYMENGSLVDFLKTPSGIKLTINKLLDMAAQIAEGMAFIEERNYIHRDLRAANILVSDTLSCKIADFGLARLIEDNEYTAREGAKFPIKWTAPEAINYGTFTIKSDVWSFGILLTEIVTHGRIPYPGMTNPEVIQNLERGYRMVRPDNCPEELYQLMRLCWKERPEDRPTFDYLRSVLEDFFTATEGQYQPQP
# EXPERIMENT NOTES: DiscoverX KINOMEscan competition binding assay
# CONDITION SUMMARY: compound 10 µM; lower values = higher affinity; below 35% = significant binding
REPORTED PROPERTY: % control, LCK (DiscoverX) (% control)

>  <COMPOUND>
O=C(NCC1CC1)Nc1ccc(N2CCOC2=O)cc1

>  <UNIT NAME>
% control

>  <% control, LCK (DiscoverX)>
100

$$$$
>  <COMPOUND>
O=C1C[C@@H](c2noc(-c3ccc[nH]c3=O)n2)CN1Cc1ccccc1

>  <UNIT NAME>
% control

>  <% control, LCK (DiscoverX)>
100

$$$$
>  <COMPOUND>
CCc1nnc(NC(=O)c2nn(-c3ccc(C)cc3)ccc2=O)s1

>  <UNIT NAME>
% control

>  <% control, LCK (DiscoverX)>
100

$$$$
>  <COMPOUND>
C[C@H](COCC(F)(F)F)NC(=O)Cc1n[nH]c(=O)c2ccccc12

>  <UNIT NAME>
% control

>  <% control, LCK (DiscoverX)>
96

$$$$
>  <COMPOUND>
Cc1[nH]c2nc3c(c(=O)n(Cc4ccccc4)c(=O)n3C)n2c1C

>  <UNIT NAME>
% control

>  <% control, LCK (DiscoverX)>
100

$$$$
>  <COMPOUND>
Cc1ccc(/C=C2\N=C(c3cccc(S(=O)(=O)N(C)C)c3)OC2=O)s1

>  <UNIT NAME>
% control

>  <% control, LCK (DiscoverX)>
90

$$$$
>  <COMPOUND>
COCCCNC(=O)c1nc2c3c4c(sc3ncn2n1)COC(C)(C)C4

>  <UNIT NAME>
% control

>  <% control, LCK (DiscoverX)>
100

$$$$
>  <COMPOUND>
COCCCNC(=O)c1nc2c3c4c(sc3ncn2n1)CCC[C@H]4C

>  <UNIT NAME>
% control

>  <% control, LCK (DiscoverX)>
100

$$$$
>  <COMPOUND>
CN(C)S(=O)(=O)c1cccc(C2=N/C(=C\c3cccc(F)c3)C(=O)O2)c1

>  <UNIT NAME>
% control

>  <% control, LCK (DiscoverX)>
87

$$$$
>  <COMPOUND>
Cc1ccc(-n2cnnn2)cc1NC(=O)NC1CC1

>  <UNIT NAME>
% control

>  <% control, LCK (DiscoverX)>
100

$$$$
>  <COMPOUND>
COc1ccc(-c2nn(C(C)=O)c3c2C(=O)CC(C)(C)C3)cc1

>  <UNIT NAME>
% control

>  <% control, LCK (DiscoverX)>
89

$$$$
>  <COMPOUND>
CC1(C)C2CC=C(COC(=O)c3cnn4cccnc34)C1C2 (stereo not shown)

>  <UNIT NAME>
% control

>  <% control, LCK (DiscoverX)>
100

$$$$
>  <COMPOUND>
O=C(O)c1cncnc1NCc1nc(-c2cnccn2)n[nH]1

>  <UNIT NAME>
% control

>  <% control, LCK (DiscoverX)>
100

$$$$
>  <COMPOUND>
CC(=O)c1cc(CC(=O)N(C)C[C@H]2CCCCO2)cs1

>  <UNIT NAME>
% control

>  <% control, LCK (DiscoverX)>
100

$$$$
>  <COMPOUND>
O=C(Cn1cnc2c(cnn2CCO)c1=O)NCc1ccccc1

>  <UNIT NAME>
% control

>  <% control, LCK (DiscoverX)>
95

$$$$
>  <COMPOUND>
CC(C)n1ccc(=O)nc1SC1CCN(c2ccccc2F)C1=O (stereo not shown)

>  <UNIT NAME>
% control

>  <% control, LCK (DiscoverX)>
100

$$$$
>  <COMPOUND>
CCOCCCNC(=O)c1nc2c3c4c(sc3ncn2n1)CC[C@@H](C)C4

>  <UNIT NAME>
% control

>  <% control, LCK (DiscoverX)>
100

$$$$
>  <COMPOUND>
CCc1nccc(-c2nccn2C(Cn2cccn2)c2ccccc2)n1 (stereo not shown)

>  <UNIT NAME>
% control

>  <% control, LCK (DiscoverX)>
100

$$$$
>  <COMPOUND>
Cc1cc(=O)n2nc(N(C)CC(=O)NCc3cccs3)sc2n1

>  <UNIT NAME>
% control

>  <% control, LCK (DiscoverX)>
100

$$$$
>  <COMPOUND>
Cc1ccc(-n2cnnn2)cc1NC(=O)NCC1CC1

>  <UNIT NAME>
% control

>  <% control, LCK (DiscoverX)>
100

$$$$
>  <COMPOUND>
O=C(Oc1ccc2c3c(c(=O)oc2c1)CCC3)c1cccc(Cl)c1

>  <UNIT NAME>
% control

>  <% control, LCK (DiscoverX)>
100

$$$$
>  <COMPOUND>
COCCCNC(=O)c1nc2c3c4c(sc3ncn2n1)CC[C@H](C)C4

>  <UNIT NAME>
% control

>  <% control, LCK (DiscoverX)>
99

$$$$
